Where these numbers come from: patent US20230135093A1

# system.name: h-GABA-A α5β3γ2 (Homo sapiens, UniProt P18507+P31644)
# Construct: expressed in transfected cells; host or cells: Xenopus laevis oocytes, micro-injected with subunit RNA
# Sequence (P31644 32-462): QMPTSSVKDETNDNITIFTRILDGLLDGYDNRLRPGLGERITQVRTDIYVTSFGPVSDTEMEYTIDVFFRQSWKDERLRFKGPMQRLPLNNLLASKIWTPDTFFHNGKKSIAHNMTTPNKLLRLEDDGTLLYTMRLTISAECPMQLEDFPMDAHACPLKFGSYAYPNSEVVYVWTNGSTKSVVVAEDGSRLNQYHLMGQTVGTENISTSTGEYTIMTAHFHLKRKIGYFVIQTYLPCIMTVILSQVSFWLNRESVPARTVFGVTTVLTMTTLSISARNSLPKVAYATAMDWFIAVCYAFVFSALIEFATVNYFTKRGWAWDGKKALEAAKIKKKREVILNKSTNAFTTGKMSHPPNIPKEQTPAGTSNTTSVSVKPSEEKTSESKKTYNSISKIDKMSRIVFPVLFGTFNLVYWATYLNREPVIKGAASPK
# Sequence (P28472 26-473 partner): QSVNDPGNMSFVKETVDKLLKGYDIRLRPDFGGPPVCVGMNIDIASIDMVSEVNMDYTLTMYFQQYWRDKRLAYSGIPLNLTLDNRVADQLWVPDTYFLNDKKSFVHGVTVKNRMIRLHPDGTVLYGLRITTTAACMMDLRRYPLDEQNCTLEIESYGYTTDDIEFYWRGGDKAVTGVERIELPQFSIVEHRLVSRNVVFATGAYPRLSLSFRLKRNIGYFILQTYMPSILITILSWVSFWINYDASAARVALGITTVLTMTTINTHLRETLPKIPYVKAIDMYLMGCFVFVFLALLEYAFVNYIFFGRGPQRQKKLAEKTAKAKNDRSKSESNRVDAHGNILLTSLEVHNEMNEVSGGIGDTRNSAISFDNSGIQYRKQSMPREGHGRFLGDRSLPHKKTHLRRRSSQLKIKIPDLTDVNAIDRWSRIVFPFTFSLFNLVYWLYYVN
# Sequence (P18507 40-475): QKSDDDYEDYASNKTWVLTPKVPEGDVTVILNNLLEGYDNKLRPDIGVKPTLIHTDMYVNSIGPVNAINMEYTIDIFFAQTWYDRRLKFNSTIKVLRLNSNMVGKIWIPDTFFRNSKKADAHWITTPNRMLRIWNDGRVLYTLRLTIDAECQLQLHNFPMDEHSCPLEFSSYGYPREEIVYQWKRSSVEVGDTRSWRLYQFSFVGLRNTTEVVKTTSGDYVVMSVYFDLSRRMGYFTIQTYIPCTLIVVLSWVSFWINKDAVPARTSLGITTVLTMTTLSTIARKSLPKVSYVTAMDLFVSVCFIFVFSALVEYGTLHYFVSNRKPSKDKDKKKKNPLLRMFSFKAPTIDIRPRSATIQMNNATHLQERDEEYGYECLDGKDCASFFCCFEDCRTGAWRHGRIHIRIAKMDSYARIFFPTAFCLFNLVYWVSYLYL
# measurement.notes: Two-electrode voltage clamp electrophysiology in Xenopus oocytes expressing GABAA receptors (modulation of GABA EC20 current)
# Format: cell-based
# condition.summary: Table 1; Xenopus oocytes, GABA EC20, test compound at approximatively 30 fold its Ki
# Procedure: Xenopus laevis oocytes at maturation stages V-VI were used for the expression of cloned mRNA encoding GABAA receptor subunits. Oocytes ready for RNA micro-injection were bought from Ecocyte, Castrop-Rauxel, Germany and stored in modified Barth's medium (composition in mM: NaCl 88, KCl 1, NaHCO3 2.4, HEPES 10, MgSO4 0.82, CaNO3 0.33, CaCl2 0.33, pH=7.5) at 20° C. until the experiment. […]
observable: Fold increase h-GABA-A α5β3γ2 oocyte
Answer field: number only, no words.

Worked set:
CC(C)N1CCN(c2cnn(Cc3c(-c4ccc(Cl)cc4)nnn3C)c(=O)c2)C[C@@H]1C : 2.03
CCOC1CN(c2cnn(Cc3c(-c4ccc(Cl)cc4F)nnn3CC)c(=O)c2)C1 : 2.28
Cn1nnc(-c2ccc(Cl)cc2F)c1Cn1ncc(N2CC3(CC[C@H](F)CO3)C2)cc1=O : 1.61
Cc1nccc(OC2CN(c3cnn(Cc4c(-c5ccc(Cl)cc5F)nnn4C)c(=O)c3)C2)n1 : 1.86
Cn1nnc(-c2ccc(C(F)(F)F)cc2F)c1Cn1ncc(N2CC(OC(F)F)C2)cc1=O : 1.75

query: Value lookup for Fold increase h-GABA-A α5β3γ2 oocyte; key = CCCOC1CN(c2cnn(Cc3c(-c4ccc(Cl)cc4F)nnn3C)c(=O)c2)C1
result: 1.94

query: Value lookup for Fold increase h-GABA-A α5β3γ2 oocyte; key = Cc1ccnn1C1CN(c2cnn(Cc3c(-c4ccc(Cl)cc4F)nnn3C)c(=O)c2)C1
result: 1.98

query: Value lookup for Fold increase h-GABA-A α5β3γ2 oocyte; key = CNc1cnn(Cc2c(-c3ccc(Cl)cc3F)nnn2C)c(=O)c1
result: 1.45

###

# system.name: h-GABA-A α5β3γ2 (Homo sapiens, UniProt P18507+P31644)
# Construct: expressed in transfected cells; host or cells: Xenopus laevis oocytes, micro-injected with subunit RNA
# measurement.notes: Two-electrode voltage clamp electrophysiology in Xenopus oocytes expressing GABAA receptors (modulation of GABA EC20 current)
# Format: cell-based
# condition.summary: Table 1; % modulation of GABA EC20 = 100*(Fold increase-1)
Reported Efficacy (GABA) % values for a set of compounds
Write the answer as a number in %, unit excluded.

Worked set:
Cc1ccc(-n2nnc(C)c2Cn2ncc(N3C[C@@H](C)O[C@@H](C)C3)cc2=O)cn1 : 190
CCOc1ncc(-c2cnn(Cc3c(-c4ccc(Cl)cc4F)nnn3C)c(=O)c2)cc1C : 143
Cn1nnc(-c2ccc(C(F)(F)F)cc2F)c1Cn1ncc(N2CC(OCC(F)F)C2)cc1=O : 115
COc1ncc(-c2cnn(Cc3c(-c4ccc(Cl)cc4F)nnn3C)c(=O)c2)cc1Cl : 125

query: Value lookup for Efficacy (GABA) %; key = COc1ncc(-c2cnn(Cc3c(-c4ccc(Cl)cc4F)nnn3C)c(=O)c2)cc1C
result: 158

query: Value lookup for Efficacy (GABA) %; key = COc1ccc(-c2cnn(Cc3c(-c4ccc(Cl)cc4F)nnn3C)c(=O)c2)cc1
result: 52

query: Value lookup for Efficacy (GABA) %; key = COc1ccc(-c2cnn(Cc3c(-c4ccc(Cl)cc4F)nnn3C)c(=O)c2)cn1
result: 50

query: Value lookup for Efficacy (GABA) %; key = Cn1nnc(-c2ccc(Cl)cc2F)c1Cn1ncc(N2CC(OCC(F)F)C2)cc1=O
result: 82

###

Reported Efficacy (GABA) % values for a set of molecules
# system.name: h-GABA-A α5β3γ2 (Homo sapiens, UniProt P18507+P31644)
# Construct: expressed in transfected cells; host or cells: Xenopus laevis oocytes, micro-injected with subunit RNA
# measurement.notes: Two-electrode voltage clamp electrophysiology in Xenopus oocytes expressing GABAA receptors (modulation of GABA EC20 current)
# Format: cell-based
# condition.summary: Table 1; % modulation of GABA EC20 = 100*(Fold increase-1)

Worked set:
Cc1nnn(-c2ccc(Cl)cc2F)c1Cn1ncc(N2C[C@H](C)O[C@@H](C)C2)cc1=O (racemic) [Example 37] : 135%
COC[C@@H]1CCCN1c1cnn(Cc2c(-c3ccc(C)nc3)nnn2C)c(=O)c1 [Example 19] : 137%
CC(C)N1CCN(c2cnn(Cc3c(-c4ccc(Cl)cc4)nnn3C)c(=O)c2)C[C@@H]1C [Example 40] : 103%
Cn1nnc(-c2ccc(Cl)cc2)c1Cn1ncc(N2CC(OCC(F)(F)F)C2)cc1=O [Example 59] : 81%
Cc1nnn(-c2ccc(Cl)cc2F)c1Cn1ncc(N2CCC(n3ccnc3C)CC2)cc1=O [Example 38] : 78%

query: Value lookup for Efficacy (GABA) %; key = CCOC1CN(c2cnn(Cc3c(-c4ccc(Cl)cc4)nnn3C)c(=O)c2)C1 [Example 41]
result: 47%

query: Value lookup for Efficacy (GABA) %; key = COc1cc(-c2cnn(Cc3c(-c4ccc(C)nc4)nnn3C)c(=O)c2)ccn1 [Example 81]
result: 110%

query: Value lookup for Efficacy (GABA) %; key = Cn1cc(-c2cnn(Cc3c(-c4ccc(Cl)cc4F)nnn3C)c(=O)c2)cn1 [Example 64]
result: 76%

query: Value lookup for Efficacy (GABA) %; key = CCn1nnc(-c2ccc(Cl)cc2F)c1Cn1ncc(-c2cccc(C#N)n2)cc1=O [Example 111]
result: 290%

query: Value lookup for Efficacy (GABA) %; key = Cc1nnn(-c2ccc(Cl)cc2F)c1Cn1ncc(N2CC(OCC(F)(F)F)C2)cc1=O [Example 34]
result: 85%

query: Value lookup for Efficacy (GABA) %; key = CCCOC1CN(c2cnn(Cc3c(-c4ccc(Cl)cc4F)nnn3C)c(=O)c2)C1 [Example 51]
result: 94%

query: Value lookup for Efficacy (GABA) %; key = Cc1ccc(-c2nnn(C)c2Cn2ncc(N3C[C@@H](C)O[C@@H](C)C3)cc2=O)cn1 [Example 2]
result: 230%

query: Value lookup for Efficacy (GABA) %; key = CCOc1ccc(-c2cnn(Cc3c(-c4ccc(Cl)cc4F)nnn3C)c(=O)c2)cn1 [Example 103]
result: 106%

###

Reported Fold increase h-GABA-A α5β3γ2 oocyte values for a set of compounds
# system.name: h-GABA-A α5β3γ2 (Homo sapiens, UniProt P18507+P31644)
# Construct: expressed in transfected cells; host or cells: Xenopus laevis oocytes, micro-injected with subunit RNA
# measurement.notes: Two-electrode voltage clamp electrophysiology in Xenopus oocytes expressing GABAA receptors (modulation of GABA EC20 current)
# Format: cell-based
# condition.summary: Table 1; Xenopus oocytes, GABA EC20, test compound at approximatively 30 fold its Ki

query: Value lookup for Fold increase h-GABA-A α5β3γ2 oocyte; key = COC1CN(c2cnn(Cc3c(-c4ccc(Cl)cc4F)nnn3C)c(=O)c2)C1 [Example 26]
result: 1.55

query: Value lookup for Fold increase h-GABA-A α5β3γ2 oocyte; key = Cn1nnc(-c2ccc(Cl)cc2F)c1Cn1ncc(N2CC(OC3CCC3)C2)cc1=O [Example 49]
result: 1.73

query: Value lookup for Fold increase h-GABA-A α5β3γ2 oocyte; key = CCn1nnc(-c2ccc(Cl)cc2F)c1Cn1ncc(N2CC3(CC[C@H](F)CO3)C2)cc1=O [Example 124]
result: 2.05

query: Value lookup for Fold increase h-GABA-A α5β3γ2 oocyte; key = Cc1ccc(-c2nnn(C)c2Cn2ncc(N3CCOCC3)cc2=O)cn1 [Example 9]
result: 2.35

query: Value lookup for Fold increase h-GABA-A α5β3γ2 oocyte; key = CCn1nnc(-c2ccc(Cl)cc2F)c1Cn1ncc(N2CC(OC(C)(C)C)C2)cc1=O [Example 97]
result: 2.15

query: Value lookup for Fold increase h-GABA-A α5β3γ2 oocyte; key = COc1ccc(-c2cnn(Cc3c(C)nnn3-c3ccc(Cl)cc3F)c(=O)c2)cc1 [Example 56]
result: 1.5

query: Value lookup for Fold increase h-GABA-A α5β3γ2 oocyte; key = COc1ncc(-c2cnn(Cc3c(-c4ccc(C)nc4)nnn3C)c(=O)c2)cc1Cl [Example 82]
result: 3.36

query: Value lookup for Fold increase h-GABA-A α5β3γ2 oocyte; key = COc1ncc(-c2cnn(Cc3c(-c4ccc(Cl)cc4F)nnn3C)c(=O)c2)cc1C [Example 104]
result: 2.58

###

# system.name: h-GABA-A α5β3γ2 (Homo sapiens, UniProt P18507+P31644)
# Construct: expressed in transfected cells; host or cells: Xenopus laevis oocytes, micro-injected with subunit RNA
# measurement.notes: Two-electrode voltage clamp electrophysiology in Xenopus oocytes expressing GABAA receptors (modulation of GABA EC20 current)
# Assay type: cell-based
# condition.summary: Table 1; % modulation of GABA EC20 = 100*(Fold increase-1)
So basically: is Efficacy (GABA) % under 80%? Then 1. Not under? Then -1.

Some entries whose results are on file:
CO[C@H]1COC2(C1)CN(c1cnn(Cc3c(-c4ccc(Cl)cc4F)nnn3C)c(=O)c1)C2 : 1
Cn1nnc(-c2ccc(Cl)cc2F)c1Cn1ncc(N2CC3(CCCCO3)C2)cc1=O : 1
CCn1nnc(-c2ccc(Cl)cc2F)c1Cn1ncc(N2CC(OC3CCC3)C2)cc1=O : -1
Cn1nnc(-c2ccc(Cl)cc2F)c1Cn1ncc(N2CC(OC(F)F)C2)cc1=O : 1
Cn1nnc(-c2ccc(C(F)(F)F)cc2F)c1Cn1ncc(N2CC(Oc3ccccn3)C2)cc1=O : 1

query: Answer whether the compound Cc1nnn(-c2ccc(Cl)cc2)c1Cn1ncc(N2CCNCC2)cc1=O has Efficacy (GABA) % strictly less than 80%
result: 1

query: Answer whether the compound Cn1nnc(-c2ccc(C(F)(F)F)cc2F)c1Cn1ncc(N2CC(Oc3cnccn3)C2)cc1=O has Efficacy (GABA) % strictly less than 80%
result: 1

query: Answer whether the compound CCn1nnc(-c2ccc(Cl)cc2F)c1Cn1ncc(-c2cnc(OC)c(Cl)c2)cc1=O has Efficacy (GABA) % strictly less than 80%
result: -1
